EXPERIMENTAL_PROTOCOL: First-in-human phase 1 study: plasma pharmacokinetics of Compound 1
Assay type: in vivo
EXPERIMENTAL_CONTEXT: both sexes, human, plasma, intravenous, 1 mg/kg, human plasma, single dose, 24 hours, Cohort 1 a (1 mg/kg), compartmental (2) analysis, ± SE

- CPD_SMILES: "CN[C@@H]1[C@@H](O)[C@@H](O[C@@H]2[C@@H](O)[C@H](O[C@H]3OC(CNCCO)=CC[C@H]3N)[C@@H](N)C[C@H]2NC(=O)[C@@H](O)CCN)OC[C@]1(C)O"
  clearance: "1.13 mL/min/kg"

---

EXPERIMENTAL_PROTOCOL: Pharmacokinetics of Compound 1 after single bolus IV injection in mice
Type: in vivo, CD-1 mice
EXPERIMENTAL_CONTEXT: male, CD-1, mouse, plasma, 10 mg/kg single bolus IV, read-out: volume of distribution at steady state (Vss)
READOUT_LABEL: Vd (L/kg)

- COMPOUND: "CN[C@@H]1[C@@H](O)[C@@H](O[C@@H]2[C@@H](O)[C@H](O[C@H]3OC(CNCCO)=CC[C@H]3N)[C@@H](N)C[C@H]2NC(=O)[C@@H](O)CCN)OC[C@]1(C)O [Compound 1]"
  REPORTED: 0.34

---

EXPERIMENTAL_PROTOCOL: Pharmacokinetics of Compound 1 after single bolus IV injection in beagle dogs (plasma)
Format: in vivo
EXPERIMENTAL_CONTEXT: male, beagle, dog, plasma, iv, 10 mg/kg, beagle dogs, 10 mg/kg single bolus IV; Dog 603; read-out: MRT0-∞
READOUT_LABEL: MRT inf

- CPD_SMILES: "CN[C@@H]1[C@@H](O)[C@@H](O[C@@H]2[C@@H](O)[C@H](O[C@H]3OC(CNCCO)=CC[C@H]3N)[C@@H](N)C[C@H]2NC(=O)[C@@H](O)CCN)OC[C@]1(C)O"
  REPORTED: "1.45 h"

---

EXPERIMENTAL_CONTEXT: rat, in vivo, 30 mg/kg

- CPD_SMILES: "NC[C@H]1O[C@H](O[C@H]2[C@H](O)[C@@H](O[C@H]3O[C@H](CO)[C@@H](O)[C@H](N)[C@H]3O)[C@H](N)C[C@@H]2N)[C@H](N)C[C@@H]1O"
  Body weight Day 11 / g: 323

---

EXPERIMENTAL_PROTOCOL: Pharmacokinetics of Compound 1 after single bolus IV injection in beagle dogs (plasma)
Type: in vivo
EXPERIMENTAL_CONTEXT: male, beagle, dog, plasma, iv, 10 mg/kg, beagle dogs, 10 mg/kg single bolus IV; Dog 601; read-out: MRT0-∞

- CPD_SMILES: "CN[C@@H]1[C@@H](O)[C@@H](O[C@@H]2[C@@H](O)[C@H](O[C@H]3OC(CNCCO)=CC[C@H]3N)[C@@H](N)C[C@H]2NC(=O)[C@@H](O)CCN)OC[C@]1(C)O"
  UNIT_ABBREV: "h"
  MRT inf: 1.26

---

EXPERIMENTAL_PROTOCOL: First-in-human phase 1 study: plasma pharmacokinetics of Compound 1
Format: in vivo
EXPERIMENTAL_CONTEXT: both sexes, human, plasma, intravenous, 11 mg/kg, human plasma, single dose, 24 hours, Cohort 3 (11 mg/kg), compartmental (2) analysis, ± SE; read-out: t1/2 beta (converted)
READOUT_LABEL: half-life

- CPD_SMILES: "CN[C@@H]1[C@@H](O)[C@@H](O[C@@H]2[C@@H](O)[C@H](O[C@H]3OC(CNCCO)=CC[C@H]3N)[C@@H](N)C[C@H]2NC(=O)[C@@H](O)CCN)OC[C@]1(C)O"
  READOUT_LABEL: "half-life"
  REPORTED: "186 min"

---

EXPERIMENTAL_CONTEXT: rat, in vivo, 100 mg/kg
READOUT_LABEL: Body weight Day 1

- CPD_SMILES: "NC[C@H]1O[C@H](O[C@H]2[C@H](O)[C@@H](O[C@H]3O[C@H](CO)[C@@H](O)[C@H](N)[C@H]3O)[C@H](N)C[C@@H]2N)[C@H](N)C[C@@H]1O"
  READOUT_LABEL: "Body weight Day 1"
  REPORTED: "246 g"

---

EXPERIMENTAL_PROTOCOL: First-in-human phase 1 study: plasma pharmacokinetics of Compound 1
Format: in vivo
EXPERIMENTAL_CONTEXT: both sexes, human, plasma, intravenous, 7 mg/kg, human plasma, single dose, 48 hours, Cohort 2 (7 mg/kg), noncompartmental analysis, ± SD
Excerpt: The initial, first-in-human (FIH) phase 1 study was a double-blind, randomized, placebo-controlled, parallel-group, single- and multiple-dose-escalation study to assess the safety, tolerability, and pharmacokinetics of Compound 1 administered IV to healthy adult volunteers. In addition, the design of this FIH phase 1 study provided rationale and support for dosing for the proposed phase 2 study in patients with cUTI (see FIG. 11). […]
READOUT_LABEL: Cmax (ng/mL)

- CPD_SMILES: "CN[C@@H]1[C@@H](O)[C@@H](O[C@@H]2[C@@H](O)[C@H](O[C@H]3OC(CNCCO)=CC[C@H]3N)[C@@H](N)C[C@H]2NC(=O)[C@@H](O)CCN)OC[C@]1(C)O"
  READOUT_LABEL: "Cmax"
  UNIT_ABBREV: "ng/mL"
  REPORTED: 46000

---

EXPERIMENTAL_PROTOCOL: Pharmacokinetics of Compound 1 after single bolus IV injection in rats
Type: in vivo, Sprague Dawley rats
EXPERIMENTAL_CONTEXT: Sprague Dawley, rat, plasma, iv, 10 mg/kg, 10 mg/kg single bolus IV, Rat 102, read-out: Vss
READOUT_LABEL: Vd (L/kg)

- CPD_SMILES: "CN[C@@H]1[C@@H](O)[C@@H](O[C@@H]2[C@@H](O)[C@H](O[C@H]3OC(CNCCO)=CC[C@H]3N)[C@@H](N)C[C@H]2NC(=O)[C@@H](O)CCN)OC[C@]1(C)O"
  REPORTED: 0.434

---

Reported Histopathology score (0 to 5 Scale): Inflammation values for the following molecules.
Test system: rat kidney
EXPERIMENTAL_PROTOCOL: Rat nephrotoxicity model: kidney histopathology (H&E)
Format: in vivo, Sprague-Dawley rats
EXPERIMENTAL_CONTEXT: rats, 14 d once-daily, 30 mg/kg
READOUT_LABEL: Histopathology score (0 to 5 Scale): Inflammation

- MOLECULE: "NCC[C@H](O)C(=O)N[C@@H]1C[C@H](N)[C@@H](O[C@H]2O[C@H](CN)[C@@H](O)[C@H](O)[C@H]2O)[C@H](O)[C@H]1O[C@H]1O[C@H](CO)[C@@H](O)[C@H](N)[C@H]1O [amikacin]"
  REPORTED: "0.4 +/− 0.5"
- MOLECULE: "NC[C@H]1O[C@H](O[C@H]2[C@H](O)[C@@H](O[C@H]3O[C@H](CO)[C@@H](O)[C@H](N)[C@H]3O)[C@H](N)C[C@@H]2N)[C@H](N)C[C@@H]1O [Tobramycin, tobramycin]"
  REPORTED: "1.8 +/− 0.8"
- MOLECULE: "NC[C@@H]1O[C@H](O[C@H]2[C@@H](O)[C@H](O[C@@H]3[C@@H](O)[C@H](N)C[C@H](N)[C@H]3O[C@H]3O[C@H](CO)[C@@H](O)[C@H](O)[C@H]3N)O[C@@H]2CO)[C@H](N)[C@@H](O)[C@@H]1O [Paromomycin, paromomycin]"
  REPORTED: "1.4 +/− 0.9"
- MOLECULE: "CN[C@@H]1[C@@H](O[C@H]2O[C@H](CO)[C@@H](N)[C@H](O)[C@H]2O)OC2C[C@@H](N)[C@@H](O[C@H]3[C@H](O)[C@@H](O)[C@H](N)C[C@@H]3N)OC2[C@@H]1O (stereo partly shown) [Apramycin, apramycin]"
  REPORTED: "0.6 +/− 0.5"

---

EXPERIMENTAL_PROTOCOL: Pharmacokinetics of Compound 1 after single bolus IV injection in rats
Format: in vivo, Sprague Dawley rats
EXPERIMENTAL_CONTEXT: Sprague Dawley, rat, plasma, iv, 10 mg/kg, 10 mg/kg single bolus IV, Rat 103, read-out: Vss

- CPD_SMILES: "CN[C@@H]1[C@@H](O)[C@@H](O[C@@H]2[C@@H](O)[C@H](O[C@H]3OC(CNCCO)=CC[C@H]3N)[C@@H](N)C[C@H]2NC(=O)[C@@H](O)CCN)OC[C@]1(C)O"
  Vd (L/kg): 0.473

---

EXPERIMENTAL_CONTEXT: rat, in vivo, 30 mg/kg
READOUT_LABEL: Body weight Day 13 (g)

- CPD_SMILES: "NC[C@H]1O[C@H](O[C@H]2[C@H](O)[C@@H](O[C@H]3O[C@H](CO)[C@@H](O)[C@H](N)[C@H]3O)[C@H](N)C[C@@H]2N)[C@H](N)C[C@@H]1O"
  READOUT_LABEL: "Body weight Day 13"
  UNIT_ABBREV: "g"
  REPORTED: 321
